Ref: patent US11478478B2

Would you kindly list IC50 for each of these compounds?
subject of test: BRD4 BD2 (Homo sapiens, UniProt O60885, Y97A)
Construct: BRD4 (1-477) (Y97A) and (Y390A); made in house; host or cells: E. coli (pET15b vector)
method: TR-FRET binding assay, BRD4 BD2 (BD1-mutated protein)
conditions used: read-out: pIC50 in the BRD4 BD2 assay (converted)
Counter-ions that a name gives are not always drawn.
The response must be a number in nM with no trailing unit.

INPUT: Read the entry CC(=O)N1c2ccc(C3=CCOCC3)cc2[C@H](Nc2cccc(C)n2)[C@@H](C)[C@@H]1C1CC1 (racemic) [Example 85, formic acid salt] and write its reported IC50.
OUTPUT: 100

INPUT: Read the entry CNC(=O)c1ccc2c(c1)[C@H](Nc1ccc(C#N)cn1)[C@@H](C)[C@H](C)N2C(C)=O (racemic) and write its reported IC50.
OUTPUT: 100

INPUT: Read the entry CC[C@H]1[C@H](C)[C@@H](Nc2ccc(C#N)cc2)c2cc(F)ccc2N1C(C)=O (racemic) [Example 62] and write its reported IC50.
OUTPUT: 100

###

subject of test: BRD4 BD2 (Homo sapiens, UniProt O60885, Y97A)
Construct: BRD4 (1-477) (Y97A) and (Y390A); made in house; host or cells: E. coli (pET15b vector)
method: TR-FRET binding assay, BRD4 BD2 (BD1-mutated protein)
conditions used: read-out: pIC50 in the BRD4 BD2 assay (converted)
metric: IC50 (nM)
The response must be a number in nM with no trailing unit.

INPUT: Read the entry CC(=O)N1c2ccc(C(=O)N[C@@H]3CCOC3)cc2[C@H](Nc2cccc(C)n2)[C@@H](C)[C@@H]1C1CC1 and write its reported IC50.
OUTPUT: 100

INPUT: Read the entry CC(=O)N1c2ccc(C(N)=O)cc2[C@H](Nc2nccc(C(C)C)n2)[C@@H](C)[C@@H]1C1CC1 and write its reported IC50.
OUTPUT: 100

###

subject of test: BRD4 BD2 (Homo sapiens, UniProt O60885, Y97A)
Construct: BRD4 (1-477) (Y97A) and (Y390A); made in house; host or cells: E. coli (pET15b vector)
method: TR-FRET binding assay, BRD4 BD2 (BD1-mutated protein)
conditions used: read-out: pIC50 in the BRD4 BD2 assay (converted)
Where a name gives a salt, the structure may show the parent alone.
metric: IC50

INPUT: Read the entry CC(=O)N1c2ccc(F)cc2[C@H](Nc2ccc(C#N)cc2)[C@@H](C)[C@@H]1C1CC1 (racemic) and write its reported IC50.
OUTPUT: 100 nM

INPUT: Read the entry CCNC(=O)c1ccc2c(c1)[C@H](Nc1cccc(C)n1)[C@@H](C)[C@H](C1CC1)N2C(C)=O and write its reported IC50.
OUTPUT: 100 nM

INPUT: Read the entry CC(=O)N1c2ccc(F)cc2[C@H](Nc2nc(C)ccc2C(N)=O)[C@@H](C)[C@@H]1C and write its reported IC50.
OUTPUT: 100 nM

INPUT: Read the entry CC(=O)N1c2ccccc2[C@H](Nc2ccccc2)[C@@H](CO)[C@@H]1C1CC1 (racemic) and write its reported IC50.
OUTPUT: 1000 to 100000 nM

INPUT: Read the entry CC(=O)N1c2ccc(C3=CCNCC3)cc2[C@H](Nc2ccc(C#N)cc2)[C@@H](C)[C@@H]1C1CC1 (racemic) and write its reported IC50.
OUTPUT: 100 nM

INPUT: Read the entry CC(=O)N1c2ccc(C3=CCNCC3)cc2[C@H](Nc2cccc(C)n2)[C@@H](C)[C@@H]1C1CC1 (single isomer, unassigned) [Example 189a] and write its reported IC50.
OUTPUT: 100 nM

INPUT: Read the entry CC(=O)N1c2ccc(C(N)=O)cc2[C@H](Nc2cccc(F)c2)[C@@H](C)[C@@H]1C1CC1 and write its reported IC50.
OUTPUT: 100 nM

INPUT: Read the entry CC(=O)N1c2ccc(C(=O)NCCO)cc2[C@H](Nc2ccc(F)c(C)n2)[C@@H](C)[C@@H]1C and write its reported IC50.
OUTPUT: 100 nM

INPUT: Read the entry CC(=O)N1c2ccc(S(C)(=O)=O)cc2[C@H](Nc2cccc(C)n2)[C@@H](C)[C@@H]1C1CC1 (racemic) and write its reported IC50.
OUTPUT: 1000 to 100000 nM

INPUT: Read the entry CC(=O)N1c2cccnc2[C@H](Nc2ccccc2)[C@@H](C)[C@@H]1C1CC1 (single isomer, unassigned) [Example 102b] and write its reported IC50.
OUTPUT: 1000 to 100000 nM

INPUT: Read the entry CC(=O)N1c2ccc(C3CCNCC3)cc2[C@H](Nc2ccc(C#N)cn2)[C@@H](C)[C@@H]1C (racemic) and write its reported IC50.
OUTPUT: 1000 to 100000 nM

INPUT: Read the entry CC(=O)N1c2ccccc2[C@H](Nc2ncccc2O)[C@@H](C)[C@@H]1C1CC1 (racemic) and write its reported IC50.
OUTPUT: 1000 to 100000 nM

INPUT: Read the entry CC[C@H]1[C@H](C)[C@@H](Nc2ccc(C#N)cc2)c2cc(C(=O)O)ccc2N1C(C)=O and write its reported IC50.
OUTPUT: 100 nM

INPUT: Read the entry CC(=O)N1c2cccnc2[C@@H](Nc2cccc(C)n2)[C@H](C)[C@H]1C1CC1 (single isomer, unassigned) [Example 114b] and write its reported IC50.
OUTPUT: 1000 to 100000 nM

INPUT: Read the entry CC(=O)N1c2ccc(F)cc2[C@H](Nc2ccnc(O)n2)[C@@H](C)[C@@H]1C1CC1 and write its reported IC50.
OUTPUT: 1000 to 100000 nM

INPUT: Read the entry CC(=O)N1c2ccc(N3CCOC(C)C3)cc2[C@H](Nc2ccccc2)[C@@H](C)[C@@H]1C (mixture of isomers) and write its reported IC50.
OUTPUT: 100 nM

INPUT: Read the entry COCCCNC(=O)c1ccc2c(c1)[C@H](Nc1cccc(C)n1)[C@@H](C)[C@H](C1CC1)N2C(C)=O and write its reported IC50.
OUTPUT: 100 nM

INPUT: Read the entry CC(=O)N1c2ccc(N3CCN[C@@H](C)C3)cc2[C@H](Nc2cnc(C)cn2)[C@@H](C)[C@@H]1C1CC1 (racemic) and write its reported IC50.
OUTPUT: 1000 to 100000 nM

INPUT: Read the entry CC(=O)N1c2ccc(F)cc2[C@H](Nc2cccnc2O)[C@@H](C)[C@@H]1C and write its reported IC50.
OUTPUT: 100 nM

INPUT: Read the entry CC(=O)N1c2ccc(C(=O)O)cc2[C@H](Nc2ccc(S(C)(=O)=O)cc2)[C@@H](C)[C@@H]1C1CC1 and write its reported IC50.
OUTPUT: 1000 to 100000 nM

INPUT: Read the entry CC(=O)N1c2cc(O)ccc2[C@H](Nc2cccc(C)n2)[C@@H](C)[C@@H]1C1CC1 (racemic) and write its reported IC50.
OUTPUT: 1000 to 100000 nM

INPUT: Read the entry CC(=O)N1c2ccc(C3=CCOCC3)cc2[C@H](Nc2ccc(C#N)cn2)[C@@H](C)[C@@H]1C1CC1 (racemic) and write its reported IC50.
OUTPUT: 100 nM

INPUT: Read the entry CC(=O)N1c2ccc(N3CCNC(C)C3)cc2[C@H](Nc2ccccc2)[C@@H](C)[C@@H]1C (mixture of isomers) [Example 72, formate salt] and write its reported IC50.
OUTPUT: 100 nM

INPUT: Read the entry CC(=O)N1c2ccc(F)cc2[C@H](Nc2ccnc(O)n2)[C@@H](C)[C@@H]1C and write its reported IC50.
OUTPUT: 1000 to 100000 nM

INPUT: Read the entry CC(=O)N1c2ccc(N3CCOCC3)cc2[C@H](Nc2ccccc2)[C@@H](C)[C@@H]1C (racemic) [Example 70] and write its reported IC50.
OUTPUT: 100 nM

INPUT: Read the entry CC(=O)N1c2ccc(C(=O)NCCS(C)(=O)=O)cc2[C@H](Nc2cccc(C)n2)[C@@H](C)[C@@H]1C1CC1 and write its reported IC50.
OUTPUT: 100 nM

INPUT: Read the entry COC[C@H]1[C@H](C)[C@@H](Nc2ccccc2)c2ccccc2N1C(C)=O (racemic) and write its reported IC50.
OUTPUT: 1000 to 100000 nM

INPUT: Read the entry COc1ccc(N[C@H]2c3ccccc3N(C(C)=O)[C@@H](C)[C@@H]2C)cc1 (racemic) and write its reported IC50.
OUTPUT: 100 nM
